test: NCI Yeast Anticancer Drug Screen. Data for the cln2 rad14 strain (AID 165);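 also: 0% = growth equal to vehicle treated cultures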; details: S. cerevisiae cln2 rad14 strain, at 50.0 µM
Compounds without any hit were thinned out: in the full panel of roughly 79,000, 15% have a hit. Active and inactive are the calls of the source. Rule as the data show it: active = growth inhibition above about 70%; inactive = the rest.
Classes used: active, inactive

compound: CCOC(=O)CCC(=O)Oc1cccc2c1C(=O)c1c(OC(=O)CCC(=O)OCC)cccc1C2=O
category: inactive
//
compound: O=C1CN(c2ccccc2)C(=O)CN1/N=C/c1ccc(O)c(O)c1
category: inactive
//
compound: COC(=O)/C(=C\C(=O)c1ccc(Br)cc1)NN=C(c1ccccc1)c1ccccc1
category: inactive
//
compound: O=C1CSC(c2ccc(Cl)c([N+](=O)[O-])c2)N1c1nncs1 (centres undefined)
category: inactive
//
compound: CCNc1nc(Cl)nc(C(Cl)(Cl)Cl)c1Cl (tested in a mixture with another compound)
category: active
//
compound: O=C(O)CCSc1nc2ccccc2s1
category: inactive
//
compound: CCCCCCCCCC(=O)N/N=C/c1ccncc1
category: inactive
//
compound: CC(C)c1ccc(C(C)(C)O)cc1
category: inactive
//
compound: Cc1ccc(N=C2C(c3ccccc3)=C(SC3=C(c4ccccc4)C(=Nc4ccc(C)cc4)c4ccccc43)c3ccccc32)cc1
category: inactive
//
compound: CCOC(=O)NC(C#N)=C(Cl)Cl
category: inactive
//
compound: N#CCCN(CCC#N)c1ccc(/C=C2\CC(O)(c3ccccc3)N(c3ccc(Cl)cc3)C2=O)cc1 (centres undefined)
category: inactive
//
compound: CCCNC(=O)Cn1c(C)cc2ccccc21
category: inactive
//
compound: Cc1nn(C(N)=S)c(C)c1N=Nc1ccc(Cl)cc1
category: inactive
//
compound: Cc1c([N+](=O)[O-])cc2c(c1[N+](=O)[O-])C(C(C)C)CCC2(C)C (centres undefined)
category: inactive
//
compound: S=C1N(c2ccccc2)CCN1c1ccccc1
category: inactive
//
compound: O=c1[nH]c(-c2ccccc2)c([N+](=O)[O-])c(=O)[nH]1
category: inactive
//
compound: CCN(C(=O)NC(C)(C)C)c1cccc(C)c1
category: inactive
//
compound: CCC(O)(c1ccc(OC)cc1)C(O)(CC)c1ccc(OC)cc1 (centres undefined)
category: inactive
//
compound: O=C(N/N=C/c1ccc(O)cc1)C1CCCO1 (centres undefined)
category: inactive
//
compound: c1ccc2c(c1)C(=NOc1nc3ccccc3c3ccccc13)c1ccccc1-2
category: inactive
//
compound: N/C=N/O
category: inactive
//
compound: C=C(NC(C)=O)C(=O)CCC(N)=O
category: inactive
//
compound: COc1cccc(C2C(C(=O)O)=C(CO)Oc3cc4c(cc32)OCO4)c1 (centres undefined)
category: inactive
//
compound: COc1ccc(N2C(=O)CSC2c2c[nH]c3ccccc23)cc1 (centres undefined)
category: inactive

* * *

test: NCI Yeast Anticancer Drug Screen. Data for the mlh1 rad18 strain (AID 175); conditions: S. cerevisiae mlh1 rad18 strain growth inhibition; at 50.0 µM; active compounds read high
About 79,000 compounds went through this panel and 15% of them were active in at least one assay; those are over-represented in the sample as a whole.
readout_type: growth inhibition (%)

compound: COC1CC(OC2CCC3(C)C(=CCC4C3C(OC(C)=O)C(OC(=O)CC(C)C)C3(C)C(C(C)=O)CCC43O)C2)OC(C)C1OC1CC(OC)C(OC2CC(OC)C(OC3OC(C)C(O)C(OC)C3O)C(C)O2)C(C)O1 (stereo unspecified)
units: %
recorded_measurement: -83.5

compound: CCOC(=O)/C(C(C)=O)=C1\C(=O)c2ccccc2-c2ccccc21
units: %
recorded_measurement: 12.5

compound: OCC(O)C1OC2CC1Nc1ccccc1N2 (stereo unspecified)
units: %
recorded_measurement: -12.7

compound: Cc1cc2nc(Oc3ccccc3)nc(=O)n2o1
units: %
recorded_measurement: -9.2

compound: C[C@@H]1C[C@@H]2C(=O)N(c3ccccc3)C(=O)[C@@H]2c2[nH]c3ccc(Br)cc3c21
units: %
recorded_measurement: -20.1

compound: COc1cc(/C=N/NC(=O)Cc2cccc3ccccc23)ccc1O
units: %
recorded_measurement: 8.8

compound: CCCCCCCCCCCCCCCCOc1ccc(N)cc1
units: %
recorded_measurement: 1.1

compound: Nc1ncnc2c1ncn2C1C=CC(COS(N)(=O)=O)C1 (stereo unspecified)
units: %
recorded_measurement: 29.4

compound: C[N+]1(C)CCCC1
units: %
recorded_measurement: 16.1

compound: [N-]=[N+]=Nc1ccccc1C(=O)NCCCNC(=O)c1ccccc1N=[N+]=[N-]
units: %
recorded_measurement: 16

compound: CC1CNC(C)(C)O1 (stereo unspecified)
units: %
recorded_measurement: 29.4

* * *

growth inhibition overview
assay: NCI Yeast Anticancer Drug Screen. Data for the sgs1 mgt1 strain (AID 161);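 also: 0% = growth of cultures given vehicle only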; details: S. cerevisiae sgs1 mgt1 strain, at 50.0 µM, active compounds read high
Compounds without any hit were thinned out: in the full panel of roughly 79,000, 15% have a hit.

compound: Cc1ccc(C2CC(c3ccc([N+](=O)[O-])cc3)=Nc3ccccc3S2)cc1 (stereo unspecified)
growth inhibition [%]: 15.1
//
compound: CC(=O)Nc1nc(C)c(S(=O)(=O)Cl)s1
growth inhibition [%]: 33
//
compound: CCCCOC(=O)NCNC(=O)OCCCC
growth inhibition [%]: -2.1
//
compound: S=C(S)N1CCN(c2cccc(Cl)c2)CC1
growth inhibition [%]: 58.5
//
compound: CC(C)=CCC/C(C)=C/c1cc(C(=O)O)c2c(ccc3ccccc32)n1
growth inhibition [%]: 6.7
//
compound: COc1ccc(C23OCN(c4ccccc4)C2(c2ccc(OC)cc2)c2ccccc2N3C)cc1 (stereo unspecified)
growth inhibition [%]: -25.4
//
compound: C1=Nc2ccccc2/C1=C/c1c[nH]c2ccccc12
growth inhibition [%]: 5.2
//
compound: O=Cc1ccccc1[N+](=O)[O-]
growth inhibition [%]: 15
//
compound: COC(=O)c1c(O)cc(OC)cc1OCc1ccccc1
growth inhibition [%]: -4.8
//
compound: CC(=O)OCC1OC(n2c(=O)n(-c3ccccc3)c(=O)c3ccccc32)C(OC(C)=O)C(OC(C)=O)C1OC(C)=O (stereo unspecified)
growth inhibition [%]: -7.9
//
compound: CC1(C)C2CC3C(=CCC4C(=O)C5CC=C6C(CC7CC6C7(C)C)C5C(=O)C43)C1C2 (stereo unspecified)
growth inhibition [%]: 14

* * *

Measured growth inhibition accompanies every entry in the list below.
experiment: NCI Yeast Anticancer Drug Screen. Data for the bub3 strain (AID 167); conditions: S. cerevisiae bub3 mutant strain, at 50.0 µM, active compounds read high
The panel holds about 79,000 compounds, 15% with a hit somewhere; the sample as a whole holds those more often.
readout_type: growth inhibition (%)

compound: COc1ccc(C=O)c(C(=O)O)c1OC
recorded_measurement: -20.2
//
compound: N#Cc1ccccc1NC(=O)Nc1ccc(Cl)cc1Cl
recorded_measurement: 4.35
//
compound: CCOC(=O)/C=C(\CC(=O)OCC)Nc1ccc(OC)cc1
recorded_measurement: -2.3
//
compound: Cc1ccc(F)c([N+](=O)[O-])c1
recorded_measurement: -9.65
//
compound: c1cncc(CSc2ncnc3nc[nH]c23)c1
recorded_measurement: -48.4
//
compound: COc1ccc(C23OCN(c4ccccc4)C2(c2ccc(OC)cc2)c2ccccc2N3C)cc1 (stereo unspecified)
recorded_measurement: -2.25
//
compound: CC1=CCC(C(C)(C)OCCCO)CC1 (stereo unspecified)
recorded_measurement: 4.4
//
compound: CC(C)C(N)(C(=O)O)c1ccccc1 (stereo unspecified)
recorded_measurement: -14.9
//
compound: Cc1ccc(S(=O)(=O)NC(CO)C(=O)O)cc1 (stereo unspecified)
recorded_measurement: -46
//
compound: CCCCC(N)=O
recorded_measurement: -5.2
//
compound: C[C@H]1CC[C@@]2(OC1)O[C@H]1C[C@H]3[C@@H]4CC[C@@H]5C[C@@H](OC6OC(CO)C(O)C(O)C6OC6OC(CO)C(O)C(O)C6O)CC[C@]5(C)[C@H]4CC[C@]3(C)[C@H]1[C@@H]2C (stereo partly specified)
recorded_measurement: -16.2

* * *

test: NCI Yeast Anticancer Drug Screen. Data for the mec2-1 strain (AID 157); conditions: S. cerevisiae mec2-1 strain, at 50.0 µM, active compounds read high
The panel holds about 79,000 compounds, 15% with a hit somewhere; the sample as a whole holds those more often.
growth inhibition values by entry

molecule: COc1ccc(C(CC(=O)O)c2ccc(OC)c(OC)c2)c(OC)c1 (stereo unspecified)
units: %
growth inhibition: -1.25
//
molecule: O=C(OCC(COC(=O)c1ccccc1)OC(=O)c1ccccc1)c1ccccc1
units: %
growth inhibition: 2.15
//
molecule: O=C(Nc1ccc(Cl)cc1)Nc1nnc2nc(C(C(=O)c3ccc(O)cc3O)c3nc4nnc(NC(=O)Nc5ccc(Cl)cc5)n4[nH]c3=O)c(=O)[nH]n12
units: %
growth inhibition: 39.9
//
molecule: CCCCCCCCCCCCOP(=O)(O)OCC(N)C(=O)O (stereo unspecified)
units: %
growth inhibition: 9.2
//
molecule: O=C(O)CC(/C=C\C(=O)C(=O)O)=C\O
units: %
growth inhibition: -6.4
//
molecule: O=[N+]([O-])c1ccc(-c2csc(NCC3CCCO3)n2)cc1 (stereo unspecified)
units: %
growth inhibition: -10.6
//
molecule: C=C[C@@]1(C)CC2CC[C@]3(C)C(C)=CC(=O)CC3[C@]2(C)CC1O (stereo partly specified)
units: %
growth inhibition: 3.3
//
molecule: COC(=O)c1c(O)ccc(O)c1C(=O)OC
units: %
growth inhibition: -18.4
//
molecule: Nc1cccn2cnnc12
units: %
growth inhibition: 15.9
//
molecule: CCC(=O)C(=O)c1ccccc1
units: %
growth inhibition: -6.5
//
molecule: Cc1ccc(C2=Nc3ccccc3SC(c3cccc([N+](=O)[O-])c3)C2)cc1 (stereo unspecified)
units: %
growth inhibition: -12.6
